The measurements presented in this section are drawn from paper PMC11435058.

System: SF-268
PROTOCOL: NCI-60 anticancer screen (SRB; single dose and five doses)
EXPERIMENTAL_CONTEXT: Homo sapiens, SF-268
Would you mind telling me the reported IC50 of each entry?
Answers are plain numbers, in µM.

Cc1[nH]c(=S)sc1C(=O)/C=C/c1ccc(Cl)cc1 : 24.6
Cc1[nH]c(=S)sc1C(=O)/C=C/c1cccc(Cl)c1 : 7.59
Cc1[nH]c(=S)sc1C(=O)/C=C/c1cccc([N+](=O)[O-])c1 : 19.1

Sure, the documented IC50 for "COc1cc(/C=C/C(=O)c2sc(=S)[nH]c2C)cc(OC)c1OC" is 6.46

---

Would you mind telling me the reported activity at 10 µM of each entry?
System: LOX IMVI
PROTOCOL: NCI-60 anticancer screen (SRB; single dose and five doses)
EXPERIMENTAL_CONTEXT: Homo sapiens, 48 h, read-out: Growth Percentage
One number for each entry, in %.

The examples below pair each entry with its known result.
COc1ccc(/C=C/C(=O)c2sc(=S)[nH]c2C)cc1OC [2o] : 26.9
Cc1[nH]c(=S)sc1C(=O)/C=C/c1ccc(F)cc1 [2c] : 8.91
Cc1[nH]c(=S)sc1C(=O)/C=C/c1ccc(Br)cc1 [2g] : -5.17
COc1ccc(/C=C/C(=O)c2sc(=S)[nH]c2C)cc1 [2l] : 44.2
Cc1[nH]c(=S)sc1C(=O)/C=C/c1ccc(Cl)cc1 [2f] : -48.1
COc1ccc(/C=C/C(=O)c2sc(=S)[nH]c2C)c(OC)c1 [2n] : 57.8
Cc1[nH]c(=S)sc1C(=O)/C=C/c1ccc([N+](=O)[O-])cc1 [2i] : -86.2
Cc1[nH]c(=S)sc1C(=O)/C=C/c1cccc(F)c1 [2b] : 13.8
Cc1[nH]c(=S)sc1C(=O)/C=C/c1cccc([N+](=O)[O-])c1 [2h] : -99
COc1cccc(/C=C/C(=O)c2sc(=S)[nH]c2C)c1OC [2m] : 21.7

Give activity at 10 µM for all compounds that follow.
1. COc1cc(/C=C/C(=O)c2sc(=S)[nH]c2C)cc(OC)c1OC [2p]
2. Cc1ccc(/C=C/C(=O)c2sc(=S)[nH]c2C)cc1 [2j]
3. Cc1[nH]c(=S)sc1C(=O)/C=C/c1cccc(Cl)c1 [2e]
4. Cc1[nH]c(=S)sc1C(=O)/C=C/c1ccccc1Cl [2d]
5. Cc1[nH]c(=S)sc1C(=O)/C=C/c1ccc(N(C)C)cc1 [2k]
6. Cc1[nH]c(=S)sc1C(=O)/C=C/c1ccccc1 [2a]

-- reply
1. 17.1
2. 31.2
3. -26.1
4. 57.5
5. 60.2
6. 31.1

---

System: OVCAR-5
PROTOCOL: NCI-60 anticancer screen (SRB; single dose and five doses)
EXPERIMENTAL_CONTEXT: Homo sapiens, OVCAR-5, 48 h, read-out: Growth Percentage
ASSAY_METRIC: activity at 10 µM (%)
Numbers only, in %.

The examples below pair each entry with its known result.
Cc1[nH]c(=S)sc1C(=O)/C=C/c1ccc(Cl)cc1 : 50.8
COc1ccc(/C=C/C(=O)c2sc(=S)[nH]c2C)cc1 : 145
Cc1[nH]c(=S)sc1C(=O)/C=C/c1cccc(F)c1 : 88.2
Cc1[nH]c(=S)sc1C(=O)/C=C/c1ccc([N+](=O)[O-])cc1 : 110

Moving on to another compound below.
Sure, the documented activity at 10 µM for "Cc1[nH]c(=S)sc1C(=O)/C=C/c1ccc(Br)cc1" is 116
